- TESTED ON: Glycogen synthase kinase-3 alpha (Homo sapiens) (UniProt P49840)
- Sequence (P49840 whole entry, looked up): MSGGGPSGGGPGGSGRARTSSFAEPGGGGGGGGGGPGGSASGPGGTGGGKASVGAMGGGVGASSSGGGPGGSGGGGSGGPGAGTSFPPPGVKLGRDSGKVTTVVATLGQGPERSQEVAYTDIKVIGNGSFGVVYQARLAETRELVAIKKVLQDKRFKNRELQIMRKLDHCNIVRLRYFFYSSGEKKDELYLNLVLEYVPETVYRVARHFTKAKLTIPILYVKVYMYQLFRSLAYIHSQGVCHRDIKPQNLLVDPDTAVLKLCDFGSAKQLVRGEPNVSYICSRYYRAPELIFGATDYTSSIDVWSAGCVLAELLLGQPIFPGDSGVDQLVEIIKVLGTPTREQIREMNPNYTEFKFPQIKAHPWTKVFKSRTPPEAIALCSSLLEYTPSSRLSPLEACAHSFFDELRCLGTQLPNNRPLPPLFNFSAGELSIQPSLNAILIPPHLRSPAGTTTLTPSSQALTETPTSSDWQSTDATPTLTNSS
- ASSAY PROTOCOL: concentration-response blocking of human GSK3A – biochemical, luminescence, cell-free homogeneous, retest, dose response (AID 463203)
- PROTOCOL CONDITIONS: GSK-3 alpha enzyme, ADP-Glo luminescence, 60 min
Activity calls are given as the source filed them.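 How the source made its calls: active means more than half of replicate measurements showing over 20% loss of kinase signal relative to plate controls; inconclusive means some but at most half of replicates over 20% loss; inactive means no replicate over 20% signal loss.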
Possible outcomes: 1 for active, 0 for inactive

> print(dat)
                                    compound                                 tested.on  class.label
 1               Cc1ccc(NC(=O)CSCc2ccco2)cc1  Glycogen synthase kinase-3 alpha (Homo sapiens) (UniProt P49840)            0
 2  CCOC(=O)C1=C(CC)OC(N)=C(C#N)C1c1ccc(NC(C)=O)cc1 (stereo not drawn)  Glycogen synthase kinase-3 alpha (Homo sapiens) (UniProt P49840)            0
 3  O=[N+]([O-])c1ccccc1/C=N/n1c(-c2cccnc2)n[nH]c1=S  Glycogen synthase kinase-3 alpha (Homo sapiens) (UniProt P49840)            1
 4  COc1ccc([N+](=O)[O-])cc1NC(=O)CCN1CCN(CCO)CC1  Glycogen synthase kinase-3 alpha (Homo sapiens) (UniProt P49840)            0
 5  COc1ccc(-c2cc(C(F)(F)F)nc(SCC(=O)NCc3cccs3)n2)cc1OC  Glycogen synthase kinase-3 alpha (Homo sapiens) (UniProt P49840)            0
 6  CC1(C)CC(=O)C(C2c3ccccc3S(=O)(=O)c3ccccc32)C(=O)C1  Glycogen synthase kinase-3 alpha (Homo sapiens) (UniProt P49840)            0
 7  COc1cccc(C2C(C(=O)OC(C)C)=C(C)Nc3ncnn32)c1 (stereo not drawn)  Glycogen synthase kinase-3 alpha (Homo sapiens) (UniProt P49840)            1
 8    COC(=O)[C@@H](NC(=O)NCc1ccccc1Cl)C(C)C  Glycogen synthase kinase-3 alpha (Homo sapiens) (UniProt P49840)            0
 9            CCCCC(=O)Nc1sc2c(c1C(N)=O)CCC2  Glycogen synthase kinase-3 alpha (Homo sapiens) (UniProt P49840)            0
10  CC(=O)c1sc(NC(=O)CN2C(=O)NC3(CCCC3)C2=O)nc1-c1ccccc1  Glycogen synthase kinase-3 alpha (Homo sapiens) (UniProt P49840)            1
11  COc1cccc(/C=N/NC(=O)COc2cccc3cccnc23)c1O  Glycogen synthase kinase-3 alpha (Homo sapiens) (UniProt P49840)            0
12  COc1ccc(OC)c(NC(=O)c2nnn(Cc3ccc(Br)cc3F)c2N)c1  Glycogen synthase kinase-3 alpha (Homo sapiens) (UniProt P49840)            0
13  Cc1ccc(-c2nnc3n2N=C(c2ccc(Br)cc2)CS3)cc1  Glycogen synthase kinase-3 alpha (Homo sapiens) (UniProt P49840)            0
14               COC(=O)c1cc2cc(Cl)ccc2nc1SC  Glycogen synthase kinase-3 alpha (Homo sapiens) (UniProt P49840)            0
15  CCOC(=O)c1cnc2c(C)cc(Cl)cc2c1N1CCN(C)CC1  Glycogen synthase kinase-3 alpha (Homo sapiens) (UniProt P49840)            0
16  COc1cc(C(=O)NCC(=O)N/N=C(C)\C=C\c2ccccc2)cc(OC)c1OC  Glycogen synthase kinase-3 alpha (Homo sapiens) (UniProt P49840)            0
17       COc1ccc2nc(SCC(=O)Nc3nccs3)[nH]c2c1  Glycogen synthase kinase-3 alpha (Homo sapiens) (UniProt P49840)            1
18     O=C(c1ccc(Cl)cc1)c1cnc(Nc2ccccc2Cl)s1  Glycogen synthase kinase-3 alpha (Homo sapiens) (UniProt P49840)            0
19          COc1ccccc1C(=O)O/N=C(\N)c1ccccn1  Glycogen synthase kinase-3 alpha (Homo sapiens) (UniProt P49840)            0
20           CCc1c(C)c(C#N)c2nc3ccccc3n2c1NC  Glycogen synthase kinase-3 alpha (Homo sapiens) (UniProt P49840)            0
21  O=[N+]([O-])c1ccc(O)c(/C=N/n2c(-c3ccccc3)n[nH]c2=S)c1  Glycogen synthase kinase-3 alpha (Homo sapiens) (UniProt P49840)            1
22            CN(C)CCCNc1oc(-c2ccccc2)nc1C#N  Glycogen synthase kinase-3 alpha (Homo sapiens) (UniProt P49840)            0
23  O=C1/C(=C/c2ccco2)Oc2c1ccc(O)c2CN1CCCCC1  Glycogen synthase kinase-3 alpha (Homo sapiens) (UniProt P49840)            1

====

- TESTED ON: UniProtKB P49840
- ASSAY PROTOCOL: concentration-response blocking of human GSK3A – biochemical, luminescence, cell-free homogeneous, retest, dose response (AID 463203)
- PROTOCOL CONDITIONS: GSK-3 alpha enzyme, ADP-Glo luminescence, 60 min
Activity calls are given as the source filed them.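 Rule for the calls: active = more than half of replicate measurements showing over 20% loss of kinase signal relative to plate controls; inconclusive = some but at most half of replicates over 20% loss; inactive = no replicate over 20% signal loss.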
Possible outcomes: active, inactive

> print(dat)
                                    compound  class.label
 1  Cc1cccc(C(=O)Nc2cccc(-c3cnc4ccccc4n3)c2)c1     inactive
 2  CCNc1ccccc(C(=O)/C=C/c2ccc3c(c2)OCO3)c1=O     inactive
 3  COC1(OC)N=C(N)C2(C#N)C(c3cccc(Oc4ccccc4)c3)C12C#N (configuration not stated)     inactive
 4  COc1ccc(-c2c(C(C)=O)c(C)nc3sc4c(=O)[nH]nnc4c23)cc1       active
 5  COc1ccc(OC)c(N=c2oc3c(OC)cccc3cc2C(=O)NCc2ccco2)c1     inactive
 6                COc1c2ccccc2c(OC)c2ccccc12     inactive
 7          Nc1nc(-c2ccccc2)nc(-c2ccccc2O)n1       active
 8               COc1ccc2c3c(cccc13)C(=O)CC2     inactive
 9      O=C(Oc1cccc([N+](=O)[O-])c1)N1CCCCC1     inactive
10         COc1cccc(N/C(SC)=C(/C#N)C(N)=O)c1       active
11          O=C(Nc1nc2c(s1)CCCC2)c1ccc(Br)o1     inactive
12      Cc1cccc(C(=O)Nc2nccs2)c1[N+](=O)[O-]     inactive

====

- TESTED ON: Glycogen synthase kinase-3 alpha (Homo sapiens)
- ASSAY PROTOCOL: concentration-response blocking of human GSK3A – biochemical, luminescence, cell-free homogeneous, retest, dose response (AID 463203)
- PROTOCOL CONDITIONS: GSK-3 alpha enzyme, ADP-Glo luminescence, 60 min
Active and inactive are the calls of the source.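 Rule for the calls: active = more than half of replicate measurements showing over 20% loss of kinase signal relative to plate controls; inconclusive = some but at most half of replicates over 20% loss; inactive = no replicate over 20% signal loss.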
Possible outcomes: yes = active, no = inactive

> print(dat)
                                    molecule  class.label
 1   O=c1[nH]c(=S)n(C2CC2)c(O)c1C=NCc1cccnc1          yes
 2  CC(C)(C)OC(=O)N1CCC(NC(=O)c2[nH]cnc2C(=O)Nc2ccc(Cl)cc2)CC1           no
 3              COc1ccc(CC(=O)Oc2ccccc2C)cc1           no
 4  COc1cc(/C(C)=N/NC(=O)c2nnn(-c3nonc3N)c2-c2cccs2)ccc1O          yes
 5  Cc1cccc(N2CC(C(=O)Nc3nccs3)CC2=O)c1C (stereo not drawn)           no
 6  Nc1nonc1-n1nnc(C(=O)N/N=C/c2ccncc2)c1CSc1ccc(Cl)cc1           no
 7  COc1cccc(Cn2nnc(C(=O)Nc3cc(Cl)ccc3OC)c2N)c1           no
 8        N#C/C(=N\Nc1ccccc1Cl)C(=O)c1ccccc1           no
 9  O=[N+]([O-])c1ccc(NCCCN2CCOCC2)c([N+](=O)[O-])c1           no
10      CC1(C)CC(=O)C(C=Nc2ccc(O)cc2)=C(O)C1           no
11      Cc1cccc(N=c2oc3cc(O)ccc3cc2C(N)=O)c1          yes
12        Cc1c(C(=O)OC(C)C)[nH]c2c1C(=O)CCC2           no
13  Cc1cccc(-c2c3c(=O)n(C)c(=O)n(C)c3c3cccnn23)c1           no
14  Cc1ccc(CNc2nc(N)c([N+](=O)[O-])c(NCc3ccccc3)n2)cc1           no
15      Cc1ccc2c(c1)N(CCC(=O)NC(C)C)C(=O)CO2           no
16       Nc1c(C(=O)O)ccc2c1C(=O)c1ccccc1C2=O          yes
17            Cc1nc2c(ccc3c2ccc2nc(C)sc23)s1           no
18  CC(=O)c1cc(-c2ccc(F)cc2)n(CCC(=O)Nc2cccc(C)n2)c1C           no
19        CCCCC(=O)Nc1nn(CCC)c2nc3ccccc3cc12           no
20  O=C(Nc1nccs1)C1CCN(S(=O)(=O)c2cnc[nH]2)CC1           no
21  CN(C)c1ncnc2c1ncn2C1OC(CO)C(O)C1O (stereo not drawn)           no
22  CCOC(=O)c1cc(CC)sc1NC(=O)COC(=O)c1ccccn1           no
23  O=C(NCc1ccc2c(c1)OCO2)c1cc(COc2c(F)cccc2F)on1           no
